- ASSAY: yeast display, Sf9 membrane polyspecificity reagent, FACS + sequencing; frameworks hold sequencing errors
MEASURED_ENDPOINT: polyreactivity (PSR sort gate)

QVQLVESGGGLVQAGGSLRLSCAASGIIFGVYAMGWYRQAPGQERELVAAIDGNGSSTYYADSVKGRFTISRDNAKNTVYLQMNSLKPEDTAVYYCAAGYWSYLYYWYDFDYWGQGTQVTVSS    low polyreactivity
QVQLVESGGGLVQAGGSLRLSCAASGSILWLNAMGWYRQAPGKERELVADITRGGSTYYADSVKGRFTISRDNAKNTVYLQMNSLTPEDTAVYYCAADAYTCQIPYYYFEHYYWGQGTQVTVSS    high polyreactivity
QVQLVESRGGLVQAGGSLRLSCAASGSTFPGYAMGCYRQAPGKERELVAAISRSGGSTSYADSVKGRFTISRDKAQNTVYLQLHSLKPEDTEVYYCAAQVQGTSRAKQRGGIGELDYWGQGTQVTVSS    low polyreactivity
QVQLVESGVGLVQAGGSLRLTCAASGRIFVTNAKGWYRQAPGKERELVAAITRGVNTNYADSVKGRFTISRDNAKNTVYLQMNSLKPEDTAVYYCAADSSYYYVYGYFPGYYYWGQGTQVTVSS    low polyreactivity
QVQLVESGGGLVQAGGRLRLSCAASGSTFFKYDMGWYRQAPGKERELVAVITWSGGTTFYADSVKGRFTISRDNAKNTVYLQMNSLKPEDTAVYYCAADYYGYRYDYWGQGTQVTVSS    low polyreactivity

Read the next record carefully.
Query :: Fill in: polyreactivity (PSR sort gate) of QVQLVESGGGLVQAGGSLRLSCAASGRIFLRNAMGWYRQAPGKERELVATITSRGGSTYYADAVKGRFTISRDNAKNTVYLQMNSLKPVDTEVYDCAADPRRYRGFGYVYGGFYYWGQGTQVTVSS is ___
Result :: low polyreactivity

---

- ASSAY: yeast display, Sf9 membrane polyspecificity reagent, FACS + sequencing; frameworks hold sequencing errors
MEASURED_ENDPOINT: polyreactivity (PSR sort gate)

Guide cases for polyreactivity (PSR sort gate), answers given:
QVQLVESGGGLVQAGGSLRLSCAASGFTLYPYAMGWYRPAPGKERELVAAISGSGGSTYYADSVKGRFTISRDNAKNTVYLQMNSLKPEDTAVYYCAARGPQQWWWDDDYWGQGTQVTVSS    high polyreactivity
QDQLVESGGGLVQAGGSLRLSCAASGRTFWRYAMGWYRQAPGKERELVAAITSGGGSTYYADSVKGRFTISRDTAKNTVYLQMNSLKPEDTAVSYCNRAGRGRSFKGDYWGQGTQVTVSS    high polyreactivity
QVQLQESGGGLVLAGGSLRLSCSASGNISVYGSMGWYRQAPGKEREFVATIDPGTNTNYADSVKDRFTISRDNAKNTVYLQMNSLKPEDTAVYYGAVEAGSDWPYPYWGQGTQVTVSS    low polyreactivity
QVQLVESGGGLVQAGGCLRLSCAASGSTLDSNAMGWYREAPGKERELVAGIDWCGGSTYADSVKGRFTISRDNAKNTVELQMTSLKPEDTAVYYCAKVSRYVQPYSRFDYWGQGTQVTVSS    low polyreactivity
QVQLVESGGGLVQAGGSLRLSCAASGYIFINNAMGWYRQAPGKERELVAAISFNSGSTYYADSVKGRFTISRDNAKNTVYLQMNSLKPEDTAVYYCAADYEGWGYDYRGDYWGQGTQVTVSS    low polyreactivity
QVQLVESGGGLVQAGGSIRLSCAASGSLFEPYFMGWYRQAPGKERELVAAIRQTGGSTYYADSVKGRFTISRDTAKNTVYLQMNSLKPEDTAVYYCAKDSQTARDFDYWGQGTQGTVSS    low polyreactivity

Query :: Return reported polyreactivity (PSR sort gate); argument: QVQLVESGGGLVQAGGSLRLSCAASGRTFVPYAMGWYRQAPGKERELVAAINSGGSTYYADSVKGRFSISRDNAKNTVYLQMNSLKPEDTAVYYCAAEYWNSRFSYAYGYWGQGTQVTVSS
Result :: high polyreactivity

Query :: Try this sequence next: QVQLVESGGGLVQAGGSLRLSCAASGYTFARNAMGWYRQAPGKERELVADINWSGTNTYYADSVKGRFTISRDNAKNTVYLQMNSLKPEDTAVDYCAKDLYFSGYEFDYWGQGTQVTVSS
Result :: low polyreactivity

Query :: Do the same for QVQLVESGGGLVQAGGSLRLSCAASGSTFQSYAMGWYRQAPGKERELVAAITTTGTRTYYADSVKGRFTISRDNAKNTVYFQMNSLKPEDTAVYSCNAQRLQAHRTSRRYDYWGQGTQVTVSS please
Result :: high polyreactivity

Query :: Now consider QVQLVESGGGLVQAGGSLRISCAAYGRIFWWYAMGWYRQAPGKERELVASIRYGGGSTYYADSVKGRFTISRDNAKNTVYLQMNSLKPEDTAVYYCAARFKRHGRSDYWGQGTQVTVSS .
Result :: high polyreactivity

Query :: Same question, QVQLVESGGGLVQAGGSLRLSCAASGIIFTTYDMGWYRQAPGKERELVAAISSSTTNTYYADSVKGRFTISRDNAKNTVYLQMNSLKPEDTAVYYCAADGYSLDRYEYWGQGTQVTVSS this time
Result :: low polyreactivity

Query :: Please answer likewise for QVQLVESGGGLVQAGGSLRLSCAASGSTFKFYAMGWYRQAPGKERELVASITSSSGPTYYADSVKGRFTISRDNAKNTVYLQLNSLKPEDTAVDYCAKRPIRYYHLLRGNYWGQGTQVTVSS
Result :: low polyreactivity

Query :: Could you do the same for QVQLVESGGGLVQAGGSLRLSCAAYGSTFGYNAMGWYRQAPGKESELVAAISSTSGSTYYADSVKGRFTISRDNAKNTVYLQMNSLKPEDTAVYYCAADDGDTNAYYFWKPYYYWGQGTQVTVSS , please?
Result :: low polyreactivity

Query :: What would you report for QVQLVESGGGLVQAGGSLRLSCAASGRTFFYYAMGWYRQAPGKERELVAAISTNGGSTYYADSVKGRFTISRDNAKNTVYLQMNSMKPDDTAVYYCNTYAKPHRSGGGLGGHYYWGQGTQVTVSS ?
Result :: low polyreactivity

Query :: Queued: QVQLVESGGGLVQAGGSLRLSCAASGFIFRSYAMGWYRQAPGKEREFVASISSRGGTTYYADSVKGRFTISRDNAKNTVYLQMNSLKTEDTAVYYCYAKRRYGPDKYDYWGQGTQVTVSS
Result :: high polyreactivity

Query :: Now consider QVQLVESGAGLVQAAGRLRLSCAASGNTFKVNVMGWYRPAPGKERQLVASITINDRSTYYADSVKGRFTISRDNAKNTVYLQMNSLKREDTEVYYCGGDLADFYPRFNYWGQGTQVSVSS .
Result :: low polyreactivity

---

- ASSAY: yeast display, Sf9 membrane polyspecificity reagent, FACS + sequencing; frameworks hold sequencing errors
MEASURED_ENDPOINT: polyreactivity (PSR sort gate)

# example entries with known answers
QVQVVESGGGLVHAGGSHRLSCAASGSIFPPYSMGWYRQAPGKEREFVAAISYSGGSTYYADSVKGRFTISRDNGKHTVYFQMNSLKPEDTAVYYCGADRYGFYLESYYWGQGTQGTVSS    low polyreactivity
QVQLVESGGGLVQAGGSVRLSCAASGRIFGIYAMGWYRQAPGKERELVAAITWIGGRTYYADSVKGRFTISRDNAKNTVYLQMNSLKPEDTAVYYCNAVYTQRFATYRRYDYWGQGTQVTVSS    high polyreactivity
QVQLVESGGGLVQAGGSLRLSCAASGLIFPYYTMGWYRQAPGKEGELVAVINRGGSTSYADSVKGRFTISRDNEKISVYLQMNSLKPEYTAVYYCARRTPYYTSYAFDSWGQGTQVTVSS    high polyreactivity
QVQLVESGGGLVQAGGSLRLSCAASGRNFLSYMGWYRQAPGKERELVAISRSGTSTYYADSVKGRFTISRDNAKNTVYLQMNSLKPEDTAVYYCAAEVLRDGWWGYYYWGQGTQVTVSS    high polyreactivity
QVQLVESGGGLVQAGGSLRLSCAASGLTFPYNAMGWYRQAPGKERELVAAISNGGGTYYADSVKGRFTISRDNAKNPVYLQMNSLKPEDTAVYYCAVDEYSRDYWRYYYWGQGTQVTVSS    low polyreactivity
QVQLVESGGGLVQAGGSLRLSCAASGRIFTRNAMGWCRPAPGKERELVAAITYTGANTYYADSVKGRFTISRDNAKNTVYLQMNSLKPEDTAVYYCAADGRVKGWGQGTQVTVSS    high polyreactivity
QFQLVESGGGLVQAGGSLRLICDASGSIFYPYTIGWYRQAPWKERQLVAAITWDGGNTYYADSVKGRFTISRDNAKNTVYLQMNSLKREDTAVYYCAAVTSGWGTYRMYYWGQGTQETVSS    high polyreactivity
QVQLVESGGGIVQAGGSLRLSCAASGSTFESNAMGSYRQAPGKERELVAAISRGGNTYYADSVKGRFTISRDNAKNTVYLQMNSLKPEDTAVYYCNVDRGNPVQPSEYWGQGTQVTVSS    low polyreactivity
QVQLVESGGGLVQAGGSLRLSCAASGSICGLYDMRWYRQAPGKERELVASITGGGSTYADSVKGRFTISRDNAKNTVYLQMNSLKPEDTAVYSFAAKPYSFYGYKYDYWGQGTQVTVSS    low polyreactivity
QVQLVESGGGLVQAGGSLRLSCAASRNIFRYYVMGWYRPAPGKEREFVAAISYRAGSTYYADSVKGSFTISRDNAKNTVYLQMNSLKPEDTAFYYCNAERTRDFYEYDYWGQGTQVTVSS    low polyreactivity

Query :: Look up polyreactivity (PSR sort gate) for this sequence: QVHLLASGGGLVQAGGSLGLSCAASGRPFNGYALGWYRPAPGSERELVASITLRGGSTYYADSVKGRFTISRDNAKYTVYLQMNCLKPEDTAVYYCNARPNTRRYTFPYGNCGQGTQVTVSS
Result :: high polyreactivity

Query :: Input QVQLVESGGGLVQAGGSLRLSCAASGITFGRNTMGWYRQAPGKERELVAAIDSGGNTYADSVKGRFTISRDNAKNTVYLQMNSLKPEDTAVYYCAVDGGEFSSYGYWGLGTQVTVSS
Result :: low polyreactivity

Query :: And for QVQLVESGGGLVQAGGSLRLSCAASGSIFSFYAVGWYRQAPGKERELVAALSSGGSTYYADSVKGRFTISGDNAKNTVYLQMNSLIPEDTAVYYCAADPYRYNFRAYGWYREGYYWGQGTQVTVSS ?
Result :: low polyreactivity

Query :: Next record, please: LLQLVESVGGLVQAGGTLRLSCAASRSTFHANTLGGYRKAPGKERELVAAISIRGANTYYADSVKGRLTISSDNAKNTVYLQMNSLKREDTAVYYCATRVRKYSLRLDYWGQGTQVTVSS
Result :: high polyreactivity

Query :: What about this sequence? QVQLVESGGGLVQAGGSLRLSCAASGLILPYYAMGWYSQARGKERELVAAISRTGGRTSYADSVKVRFTISRDNAKNTVYLLINSLKPEDTAVYYCAAVGQSGGRRYDYWGQGTQVTVSS
Result :: high polyreactivity
